molecular target: hemagglutinin on whole influenza A virions, A/Wisconsin/67/05 H3N2 (Influenza A virus …); experiment: cell-based or functional assay
Metric: % Neutralization
Write the numeric value and follow it with the unit.

# % Neutralization (binder: TCN-560 (5084_P10) (antibody, V domains shown) VH: EVQLVESGGGLVQPGGSLRLSCAASGFIFRNYWMSWVRQAPGKGLEWVANIKQDGREKYYVDSLRGRVNISRDNAENSLYLHMNSLRVEDTAVYFCARARMVVVTGDGFDVWGHGTMVTVSS VL: DIQMTQSPSSLSASVGDRVTITCRASQNIKRYFNWYQQKPGKAPKLLIYAASNLENGVPSRFSGSGSGTDFTLTISSLQPEDFATYYCQQSFSKSWTFGQGTNVDIK ) is 4%

Just so you know, measured % Neutralization for TCN-556 (5089_K12) (antibody, V domains shown) VH: QVQLVQSGAEVKKPGASVKVSCKASGYTFIGYDMHWVRQAPGQGLEWMGWINAKRGGTNYAQKFQGRVTMTRDTSISTAYMELNSLRSDDTAVYYCARGVGSRTTIFGVLNPEFDYWGQGTLVTVSS VL: QSALTQPPSASGSPGQSVTISCTGSSSDVGGYDYVSWYQQHPGKAPKLLIYEVTKRPSGVPDRFSGSKSGNTASLTVSGLQAEDEADYYCSSYAGNYNHVFGPGTKVTVL came out at 15%

Note to self: % Neutralization recorded for TCN-557 (5081_A04) (antibody, V domains shown) VH: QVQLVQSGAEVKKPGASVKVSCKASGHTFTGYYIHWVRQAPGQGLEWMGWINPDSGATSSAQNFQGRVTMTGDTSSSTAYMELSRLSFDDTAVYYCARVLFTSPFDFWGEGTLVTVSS VL: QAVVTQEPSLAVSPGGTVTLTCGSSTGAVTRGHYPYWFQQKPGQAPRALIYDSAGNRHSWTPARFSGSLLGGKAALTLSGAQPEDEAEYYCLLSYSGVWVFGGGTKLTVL was 0%

Data credit: patent US20150086555A1
